Test system: EMC-BAC-2
Assay: relative viability (nuclei count vs DMSO), 5 days (fraction); higher = more cells survive
Conditions: first compound 0.03162 µM
// reported relative viability per item
When you answer, write just the number.

1) O=c1cc(N2CCOCC2)oc2c(-c3cccc4c3sc3ccccc34)cccc12 + CC1(C)CCC(c2ccc(Cl)cc2)=C(CN2CCN(c3ccc(C(=O)NS(=O)(=O)c4ccc(N[C@H](CCN5CCOCC5)CSc5ccccc5)c(S(=O)(=O)C(F)(F)F)c4)cc3)CC2)C1 [Navitoclax] (partner 0.5 µM) | 1.13
2) O=c1cc(N2CCOCC2)oc2c(-c3cccc4c3sc3ccccc34)cccc12 + CC(=O)Nc1cccc(-n2c(=O)n(C3CC3)c(=O)c3c(Nc4ccc(I)cc4F)n(C)c(=O)c(C)c32)c1 [Trametinib] (partner 0.02 µM) | 0.93
3) CCN(CC)CCCCNc1ncc2cc(-c3cc(OC)cc(OC)c3)c(NC(=O)NC(C)(C)C)nc2n1 + NC(=O)Nc1cc(-c2cccc(F)c2)sc1C(=O)N[C@H]1CCCNC1 [AZD7762] (partner 0.2 µM) | 1.14
4) O=c1cc(N2CCOCC2)oc2c(-c3cccc4c3sc3ccccc34)cccc12 + O=C(c1cc(Cc2n[nH]c(=O)c3ccccc23)ccc1F)N1CCN(C(=O)C2CC2)CC1 [Olaparib] (partner 8 µM) | 0.507
5) O=c1cc(N2CCOCC2)oc2c(-c3cccc4c3sc3ccccc34)cccc12 + C[C@]1(O)C[C@@H](c2nc(-c3ccc4ccc(-c5ccccc5)nc4c3)c3c(N)nccn32)C1 [Linsitinib] (partner 1 µM) | 0.867
6) CCN(CC)CCCCNc1ncc2cc(-c3cc(OC)cc(OC)c3)c(NC(=O)NC(C)(C)C)nc2n1 + CS(=O)(=O)CCNCc1ccc(-c2ccc3ncnc(Nc4ccc(OCc5cccc(F)c5)c(Cl)c4)c3c2)o1 [Lapatinib] (partner 2 µM) | 0.941
7) CCN(CC)CCCCNc1ncc2cc(-c3cc(OC)cc(OC)c3)c(NC(=O)NC(C)(C)C)nc2n1 + C[C@]1(O)C[C@@H](c2nc(-c3ccc4ccc(-c5ccccc5)nc4c3)c3c(N)nccn32)C1 [Linsitinib] (partner 1 µM) | 0.836
8) O=c1cc(N2CCOCC2)oc2c(-c3cccc4c3sc3ccccc34)cccc12 + COc1cc2c(Oc3ccc(NC(=O)C4(C(=O)Nc5ccc(F)cc5)CC4)cc3F)ccnc2cc1OCCCN1CCOCC1 [Foretinib] (partner 0.25 µM) | 0.995

# ---- query compound ----
Form field relative viability, entry O=c1cc(N2CCOCC2)oc2c(-c3cccc4c3sc3ccccc34)cccc12 + N=C(N)NC(=N)NCCc1ccccc1 [Phenformin] (partner 250 µM) : 0.57

* * *

Tested on: LU99A
Test: relative viability (nuclei count vs DMSO), 5 days (fraction); higher = more cells survive
Details: first compound 2.53 µM
property-measured: relative viability

Consider the reported relative viability for these molecules:
1. COc1nc(C)cnc1NS(=O)(=O)c1cccnc1-c1ccc(-c2nnco2)cc1 [Zibotentan] + CS(=O)(=O)N1CCN(Cc2cc3nc(-c4cccc5[nH]ncc45)nc(N4CCOCC4)c3s2)CC1 [Pictilisib] (partner 1 µM) | 0.371
2. COc1nc(C)cnc1NS(=O)(=O)c1cccnc1-c1ccc(-c2nnco2)cc1 [Zibotentan] + CC(=O)Nc1cccc(-n2c(=O)n(C3CC3)c(=O)c3c(Nc4ccc(I)cc4F)n(C)c(=O)c(C)c32)c1 [Trametinib] (partner 0.02 µM) | 0.585
3. COc1nc(C)cnc1NS(=O)(=O)c1cccnc1-c1ccc(-c2nnco2)cc1 [Zibotentan] + Nc1ncn([C@H]2C[C@H](O)[C@@H](CO)O2)c(=O)n1 [Decitabine] (partner 2 µM) | 1.06

# ---- query molecule ----
Form field relative viability, entry O=c1cc(-c2cccc3c2Sc2ccccc2S3)oc(N2CCOCC2)c1 + CS(=O)(=O)CCNCc1ccc(-c2ccc3ncnc(Nc4ccc(OCc5cccc(F)c5)c(Cl)c4)c3c2)o1 [Lapatinib] (partner 2 µM) : 1.03

The origin of these recorded values is the supplement of paper PMC10307832.
